Target: human PDE2A1 (Homo sapiens (Human), UniProt O00408)
Sequence (O00408 other isoform, or with tags, fused parts or gaps): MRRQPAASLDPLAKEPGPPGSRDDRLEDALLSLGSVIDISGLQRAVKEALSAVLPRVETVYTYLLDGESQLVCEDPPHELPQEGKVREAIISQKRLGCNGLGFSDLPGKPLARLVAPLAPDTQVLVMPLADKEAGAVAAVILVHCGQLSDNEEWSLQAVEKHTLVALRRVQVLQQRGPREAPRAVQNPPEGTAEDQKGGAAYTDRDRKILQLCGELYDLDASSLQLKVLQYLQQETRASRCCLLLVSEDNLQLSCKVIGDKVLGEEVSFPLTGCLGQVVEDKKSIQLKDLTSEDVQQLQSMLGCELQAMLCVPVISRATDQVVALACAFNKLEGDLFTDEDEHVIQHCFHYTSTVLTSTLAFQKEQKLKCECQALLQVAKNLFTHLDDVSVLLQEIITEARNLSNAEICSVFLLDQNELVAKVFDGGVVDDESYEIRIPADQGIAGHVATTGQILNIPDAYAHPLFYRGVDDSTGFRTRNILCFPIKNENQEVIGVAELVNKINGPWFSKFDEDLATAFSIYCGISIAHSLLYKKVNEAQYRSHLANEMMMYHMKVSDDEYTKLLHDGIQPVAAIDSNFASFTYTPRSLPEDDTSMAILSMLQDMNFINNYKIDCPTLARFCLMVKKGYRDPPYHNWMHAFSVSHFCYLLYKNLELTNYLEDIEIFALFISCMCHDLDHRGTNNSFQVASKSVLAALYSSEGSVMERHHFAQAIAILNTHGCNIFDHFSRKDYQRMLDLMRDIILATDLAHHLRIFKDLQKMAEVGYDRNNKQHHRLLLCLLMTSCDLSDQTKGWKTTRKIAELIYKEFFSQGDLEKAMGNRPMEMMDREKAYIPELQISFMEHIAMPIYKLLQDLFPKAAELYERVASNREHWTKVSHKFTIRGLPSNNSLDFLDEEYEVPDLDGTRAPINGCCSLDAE
Assay: IMAP FP PDE selectivity panel, human PDE2A1
Format: biochemical
Settings: Human PDE2, Lab B; read-out: Human PDE2 Ki (nM) - Lab B
Give measured Ki for each item. Keep answers brief.
Numbers only, in nM.

State recorded Ki for all listed molecules.
1. CCC(C)(NC(=O)c1cc(=O)[nH]c(C)n1)c1ccc(C(F)(F)F)cc1F (single isomer, unassigned) [Example 718]
2. CC(NC(=O)c1cc(=O)[nH]c(-c2ccccc2)n1)c1ccc(C2(C(F)(F)F)CC2)cc1 (single isomer, unassigned) [Example 691]
3. CC(C)(C)[C@@H](NC(=O)c1cc(=O)[nH]c(-c2ncccn2)n1)c1ccc(C2CC2)cc1 [Example 557]
4. C[C@@H](NC(=O)c1cc(=O)[nH]c(-c2ncccn2)n1)c1ccc(OC(F)(F)F)cc1F [Example 101]
5. O=C(N[C@@H](c1ccc(OC(F)F)cc1)C1CC1)c1cc(=O)[nH]c(-c2ncccn2)n1 [Example 559]

### Response
1: 39; 2: 39; 3: 8.9; 4: 33; 5: 128

Give me Ki for each of these molecules, listed below.
1. O=C(NC1(c2ccc3c(c2)OC(F)(F)O3)CC1)c1cc(=O)[nH]c(-c2ncccn2)n1 [Example 571]
2. COc1ccc(Cc2nc(C(=O)N[C@@H](c3ccc(SC(F)(F)F)cc3)C(C)(C)C)cc(=O)[nH]2)cc1F [Example 507]
3. COc1ccc(C(C)(C)c2nc(C(=O)N[C@@H](c3ccc(C(F)(F)F)cc3)C3CC3)cc(=O)[nH]2)cc1 [Example 502]
4. Cc1nc(C(=O)NC2(c3ccc(C(C)(C)C)cc3)CC2)cc(=O)[nH]1 [Example 623]
5. Cc1nc(C(=O)N[C@H](C)c2ccc3c(c2)OC(F)(F)O3)cc(=O)[nH]1 [Example 606]
6. Cc1nc(C(=O)N[C@@H](c2ccc(C3CC3)c(F)c2)C2CC2)cc(=O)[nH]1 [Example 426]
7. CC(NC(=O)c1cc(=O)[nH]c(-c2ccccc2)n1)c1ccc(-n2cccn2)cc1 (centres unmarked) [Example 350]
8. CC(C)[C@@H](NC(=O)c1cc(=O)[nH]c(-c2ncccn2)n1)c1ccc(OC(F)(F)F)c(Br)c1 [Example 580]

### Response
1: 71; 2: 1; 3: 75; 4: 31; 5: 237; 6: 9.5; 7: 39; 8: 38

Give Ki for each of the items listed below.
1. Cc1nc(C(=O)N[C@@H](c2ccc3c(c2)OC(F)(F)O3)C(C)(C)C)cc(=O)[nH]1 [Example 633]
2. COC(=O)c1ccc([C@@H](C)NC(=O)c2cc(=O)[nH]c(-c3ccccc3)n2)cc1 [Example 359]

### Response
[16, 129]

Please state, for each entry, its recorded Ki.
1. CC[C@@H](NC(=O)c1cc(=O)[nH]c(Cc2ccc(OC)c(F)c2)n1)c1ccc(SC(F)(F)F)cc1 [Example 518]
2. CC1([C@@H](NC(=O)c2cc(=O)[nH]c(-c3ncccn3)n2)c2ccc(S(F)(F)(F)(F)F)cc2)CC1 [Example 564]

### Response
1: 1.7; 2: 6.7
